Assay Name: Drug metabolism in Leptosphaeria maculans isolate BJ-125 assessed as drug recovery at 0.10 mM after 24 hr by HPLC analysis
Type: ADME, organism-based
Test Settings: plenodomus lingam, Leptosphaeria maculans isolate BJ-125 (fungus); read-out: Drug recovery
Readout Type: remaining at 24 h, 100 µM (%)
Expressed in %, but write only the number.

Some compounds with known remaining at 24 h, 100 µM results, for comparison:
> print(dat)
                                   compound  reading
1  COn1c(CNC(=S)SC)cc2ccccc21 [1-METHOXYISOBRASSININ]       47
2             CS/C(S)=N/CCCc1c[nH]c2ccccc12       37
3  CSC(=S)NCCc1c[nH]c2ccccc12 [METHYL TRYPTAMINEDITHIOCARBAMATE]       55

Okay, now this compound:
GET /values?readout=remaining at 24 h, 100 µM&item= CSC(=S)OCCc1c[nH]c2ccccc12 [METHYL TRYPTOPHOLDITHIOCARBAMATE]
15

====

Examples of molecules with documented remaining at 24 h, 100 µM follow.
Assay Name: Drug metabolism in Leptosphaeria maculans isolate BJ-125 assessed as drug recovery at 0.10 mM after 24 hr by HPLC analysis
Format: ADME, organism-based
Test Settings: plenodomus lingam, Leptosphaeria maculans isolate BJ-125 (fungus); read-out: Drug recovery

Some molecules with known remaining at 24 h, 100 µM results, for comparison:
> print(dat)
                                   molecule               readout.type  reading
1  CSC(=S)NCc1cc2ccccc2[nH]1 [ISOBRASSININ]  remaining at 24 h, 100 µM     < 5%
2              CSC(=S)NCc1ccc(-c2ccccc2)cc1  remaining at 24 h, 100 µM     < 5%

Okay, now this molecule:
GET /values?readout=remaining at 24 h, 100 µM&item= CSC(=S)NCc1c[nH]c2ccccc12 [BRASSININ]
< 5%
